Molecular target: Recombinant human JARID1B/KDM5B (Homo sapiens, UniProt Q9UGL1)
Construct: purchased Active Motif 31432; host or cells: Sf9 insect cells
Sequence (Q9UGL1 whole entry): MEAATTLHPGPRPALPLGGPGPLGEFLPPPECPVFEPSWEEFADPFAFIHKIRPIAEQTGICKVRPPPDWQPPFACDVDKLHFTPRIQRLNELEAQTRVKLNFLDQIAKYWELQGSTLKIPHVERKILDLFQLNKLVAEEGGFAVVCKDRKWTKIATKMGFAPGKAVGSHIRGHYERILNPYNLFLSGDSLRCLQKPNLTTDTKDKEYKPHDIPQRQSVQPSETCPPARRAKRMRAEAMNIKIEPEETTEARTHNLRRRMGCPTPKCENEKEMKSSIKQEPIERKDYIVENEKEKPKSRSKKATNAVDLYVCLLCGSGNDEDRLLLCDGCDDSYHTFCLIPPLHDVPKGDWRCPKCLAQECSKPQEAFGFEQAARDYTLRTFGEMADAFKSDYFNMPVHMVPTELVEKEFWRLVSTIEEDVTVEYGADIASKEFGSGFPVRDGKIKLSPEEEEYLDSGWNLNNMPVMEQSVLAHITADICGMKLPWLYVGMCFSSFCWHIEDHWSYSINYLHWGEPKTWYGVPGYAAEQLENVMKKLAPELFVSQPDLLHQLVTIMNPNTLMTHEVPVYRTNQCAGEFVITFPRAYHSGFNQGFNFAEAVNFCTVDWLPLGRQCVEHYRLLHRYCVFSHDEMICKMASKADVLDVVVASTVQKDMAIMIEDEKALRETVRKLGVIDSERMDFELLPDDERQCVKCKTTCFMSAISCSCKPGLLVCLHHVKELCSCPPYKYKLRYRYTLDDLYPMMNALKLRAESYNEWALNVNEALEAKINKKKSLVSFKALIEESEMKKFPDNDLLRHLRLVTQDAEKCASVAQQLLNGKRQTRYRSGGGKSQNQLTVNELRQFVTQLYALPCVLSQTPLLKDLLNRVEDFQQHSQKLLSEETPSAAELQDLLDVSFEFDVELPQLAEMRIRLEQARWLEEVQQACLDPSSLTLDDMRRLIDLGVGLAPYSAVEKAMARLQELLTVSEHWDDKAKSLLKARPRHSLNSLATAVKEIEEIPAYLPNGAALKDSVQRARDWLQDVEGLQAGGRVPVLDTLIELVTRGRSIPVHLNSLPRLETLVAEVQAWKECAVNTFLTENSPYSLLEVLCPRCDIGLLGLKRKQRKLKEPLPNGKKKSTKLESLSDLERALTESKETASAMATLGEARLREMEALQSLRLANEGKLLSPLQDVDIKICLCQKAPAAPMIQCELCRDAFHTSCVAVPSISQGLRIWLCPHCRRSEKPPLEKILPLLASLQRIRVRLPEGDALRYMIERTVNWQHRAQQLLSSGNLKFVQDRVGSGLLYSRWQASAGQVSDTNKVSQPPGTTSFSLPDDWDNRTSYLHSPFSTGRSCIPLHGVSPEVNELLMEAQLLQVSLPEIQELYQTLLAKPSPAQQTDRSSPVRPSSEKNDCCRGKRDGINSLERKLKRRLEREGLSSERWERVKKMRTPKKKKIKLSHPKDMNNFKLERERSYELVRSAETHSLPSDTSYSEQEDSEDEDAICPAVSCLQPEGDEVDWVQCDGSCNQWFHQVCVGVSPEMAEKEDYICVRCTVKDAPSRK
Assay: LANCE Ultra TR-FRET demethylase assay with FLAG-tagged JARID1B
Format: biochemical
Conditions: 100 nM compound; 500 nM biotinylated H3K4me3 peptide substrate
quantity.measured: inhibition at 0.1 µM

The compound listed as O=C(NCCC1CCNCC1)c1cc(OCc2nc3cnccc3c(=O)[nH]2)ccc1Cl [Example 46] shows inhibition at 0.1 µM equal to 20 to 50%

The reported value for Cc1ccc(Cl)c(OCc2nc3c(CNCC4CCNCC4)nccc3c(=O)[nH]2)c1 [Example 130] in terms of inhibition at 0.1 µM is > 50%

Sure, the documented inhibition at 0.1 µM for CN1CCC(CNCc2nccc3c(=O)[nH]c(COCc4ccccc4)nc23)C1 (stereo not drawn) [Example 205] is 20 to 50%

inhibition at 0.1 µM reading for CC(NCc1nccc2c(=O)[nH]cnc12)C1CCNCC1 (stereo not drawn) [Example 94] : < 20%

Data point: N[C@@H]1CCN(C(=O)CNCc2nccc3c(=O)[nH]c(COc4ccc(F)c(Cl)c4)nc23)C1 [Example 228] ; inhibition at 0.1 µM = > 50%

Record N#Cc1cccc(OCc2nc3c(CNCC4CCNCC4)nccc3c(=O)[nH]2)c1 [Example 138] , field inhibition at 0.1 µM: 20 to 50%

The recorded inhibition at 0.1 µM for O=c1[nH]c(C2CCOC2)nc2c(CNCC3CCNCC3)nccc12 (stereo not drawn) [Example 195] is < 20%

Value of measured inhibition at 0.1 µM for the entry O=C1CCCN1CCCNCc1nccc2c(=O)[nH]cnc12 [Example 88] : < 20%

Entry Cc1cc(C)n(CCNCc2nccc3c(=O)[nH]c(COc4ccc(F)c(Cl)c4)nc23)n1 [Example 183] , inhibition at 0.1 µM reported as < 20%

The compound listed as Cc1cnc(CNCc2nccc3c(=O)[nH]c(COc4ccc(F)c(Cl)c4)nc23)cn1 [Example 166] shows inhibition at 0.1 µM equal to 20 to 50%

Record CN1CCC(CNCc2nccc3c(=O)[nH]c(C4CCCO4)nc23)CC1 (stereo not drawn) [Example 194] . Reported inhibition at 0.1 µM: < 20%

Item: O=c1[nH]cnc2c(CNC[C@H]3CCCNC3)nccc12 [Example 99] | inhibition at 0.1 µM: 20 to 50%

====

Answer each item with its documented inhibition at 0.1 µM.
Target: Recombinant human JARID1B/KDM5B (Homo sapiens)
Construct: purchased Active Motif 31432; host or cells: Sf9 insect cells
Assay: LANCE Ultra TR-FRET demethylase assay with FLAG-tagged JARID1B
Assay type: biochemical
Settings: 100 nM compound; 500 nM biotinylated H3K4me3 peptide substrate
From the text: FLAG-tagged JARID1B (also known as KDM5B) protein was screened against more than 170 compounds. For this compound screening, LANCE Ultra time-resolved fluorescence resonance energy transfer (TR-FRET) assay was employed using an europoium (Eu)-labeled antibody that can specifically recognize mono- or dimethylated peptides (H3K4me2/1) and ULight-streptavidin (ULight-SA), a small molecule fluorescent dye. […]

// inhibition at 0.1 µM value for O=c1[nH]c(COCc2ccccc2)nc2c(CNC[C@H]3CCNC3)nccc12 : 20 to 50%

Please fill in: inhibition at 0.1 µM reported for O=c1[nH]c(COc2ccc(Cl)cc2)nc2c(CNCC3CCN(Cc4ccccc4)CC3)nccc12 = > 50%

response.value for O=c1[nH]c(COc2ccc(Cl)c(F)c2)nc2c(CNCC3CCNCC3)nccc12 (field: inhibition at 0.1 µM) = 20 to 50%

Form field inhibition at 0.1 µM, entry O=c1[nH]c(COc2ccc(Cc3ccccc3)cc2)nc2c(CNC[C@H]3CCNC3)nccc12 : > 50%

Briefly, inhibition at 0.1 µM measured for O=C(CNCc1nccc2c(=O)[nH]c(COc3ccc(F)c(Cl)c3)nc12)N[C@@H]1CCCNC1 : > 50%

Taken from patent US9834550B2.
